Assayed System: hCB2 (Homo sapiens, UniProt P34972)
Sequence (P34972 whole entry): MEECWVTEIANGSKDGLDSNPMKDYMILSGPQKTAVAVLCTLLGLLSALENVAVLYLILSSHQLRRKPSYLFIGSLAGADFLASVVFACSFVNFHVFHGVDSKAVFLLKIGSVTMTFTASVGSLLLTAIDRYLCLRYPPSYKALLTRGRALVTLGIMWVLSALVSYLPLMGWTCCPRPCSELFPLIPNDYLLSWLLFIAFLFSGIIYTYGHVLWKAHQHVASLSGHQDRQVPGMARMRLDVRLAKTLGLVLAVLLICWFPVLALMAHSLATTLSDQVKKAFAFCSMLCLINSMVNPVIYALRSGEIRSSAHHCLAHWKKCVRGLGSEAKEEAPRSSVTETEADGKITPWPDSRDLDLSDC
Procedure Summary: hCB2 radioligand binding assay ([3H]-CP 55,940 displacement)
Conditions Used: hCB2 IC50 (CP displ, nM, HEK), HEK membranes
Protocol: cDNA expression clones for human CB 1 (hCB1, Genbank Accession No. AY225225) and human CB2 (hCB2, Genbank Accession No. AY242132) expressed in vector pcDNA3.1+ were purchased from UMR cDNA Resource Center, Rolla, Mo. (Clone ID CNR01L000 for hCB1; CNR0200000 for hCB2). Membranes were isolated from transfected cells as follows. […] Protein concentration of membrane suspensions were measured by Bradford Protein Assay using bovine serum albumin as the standard (BioRad catalog #500-0006). […]
Measurement Type: IC50

# annotated cases, reported IC50 shown
>>> df
                                   compound  measurement_type  measured_value
0  CCCn1c(C)c(C(=O)c2cc3ccsc3n2CC)c2cccc(OC)c21 [Compound I-36]              IC50        < 100 nM
1  CCCn1c(C)c(C(=O)c2cc3ccsc3n2CCC)c2c1CCC(C)(C)C2 [Compound I-35]              IC50        < 100 nM
2  CCCn1c(C)c(C(=O)c2cc3ccsc3n2CCC)c2cc(OC)ccc21 [Compound I-61]              IC50        < 100 nM
3  CCCn1cc(C(=O)c2cc3ccsc3n2C)c2ccccc21 [Compound I-32]              IC50        < 100 nM
4  CCCCCn1c(C)c(C(=O)c2cc3ccsc3n2CCC)c2ccccc21 [Compound I-60]              IC50        < 100 nM
5  CCCn1c(C)c(C(=O)c2cc3cc(C)n(CCC)c3s2)c2ccccc21 [Compound I-63]              IC50  100 to 1000 nM

Could you now consider this next compound?
Give a short answer stating reported IC50 for Cc1[nH]c2sccc2c1C(=O)c1cccc2ccccc12 [Compound I-3] .
1000 to 10000 nM
